Assay System: Orexin/Hypocretin receptor type 1 (Homo sapiens, UniProt O43613)
Sequence (O43613 whole entry): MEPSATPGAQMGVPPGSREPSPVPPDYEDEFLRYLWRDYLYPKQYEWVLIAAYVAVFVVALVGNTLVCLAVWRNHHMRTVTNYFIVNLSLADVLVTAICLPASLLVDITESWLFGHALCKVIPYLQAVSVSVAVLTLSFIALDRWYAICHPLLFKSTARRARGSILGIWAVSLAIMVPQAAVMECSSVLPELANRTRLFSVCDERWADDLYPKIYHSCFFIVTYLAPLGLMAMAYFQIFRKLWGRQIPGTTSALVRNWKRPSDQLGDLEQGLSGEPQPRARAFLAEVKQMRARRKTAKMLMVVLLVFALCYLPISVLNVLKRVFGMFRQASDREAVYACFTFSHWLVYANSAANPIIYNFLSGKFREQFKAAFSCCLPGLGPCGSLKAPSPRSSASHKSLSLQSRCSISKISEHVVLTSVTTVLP
Assay Explanation: Antagonist activity at human recombinant OX1R expressed in CHOK1 cells assessed as inhibition of orexin A-induced intracellular Ca2+ release preincubated for 30 mins followed by orexin-A stimulation by Fluo4-AM dye based fluorescence analysis
Could you mark each record Satisfied if its IC50 falls strictly under 20 nM, and Not satisfied if it equals or exceeds it?

{"Smiles Entry": "CCN(CCn1ccc(-c2ccc(F)cn2)n1)C(=O)c1ccccc1-n1nccn1", "Assay System": "Orexin/Hypocretin receptor type 1 (Homo sapiens, UniProt O43613)", "Assigned Category": "Not satisfied"}
{"Smiles Entry": "Cc1ccc(-n2nccn2)c(C(=O)N2CCS[C@H]2Cn2ccc(-c3ccc(F)cn3)n2)c1", "Assay System": "Orexin/Hypocretin receptor type 1 (Homo sapiens, UniProt O43613)", "Assigned Category": "Not satisfied"}
{"Smiles Entry": "Cc1ccc(-n2nccn2)c(C(=O)N2CCO[C@@H]2Cn2ccc(-c3ccc(F)cn3)n2)c1", "Assay System": "Orexin/Hypocretin receptor type 1 (Homo sapiens, UniProt O43613)", "Assigned Category": "Not satisfied"}
{"Smiles Entry": "O=C(c1cc(F)ccc1-c1ncccn1)N1CCCO[C@H]1Cn1ccc(-c2ccc(F)cn2)n1", "Assay System": "Orexin/Hypocretin receptor type 1 (Homo sapiens, UniProt O43613)", "Assigned Category": "Satisfied"}
{"Smiles Entry": "O=C(c1ccccc1-n1nccn1)N1CCCO[C@H]1Cn1ccc(-c2ccc(F)cn2)n1", "Assay System": "Orexin/Hypocretin receptor type 1 (Homo sapiens, UniProt O43613)", "Assigned Category": "Satisfied"}
{"Smiles Entry": "O=C(c1cc(F)ccc1-n1nccn1)N1CCCO[C@H]1Cn1ccc(-c2ccc(F)cn2)n1", "Assay System": "Orexin/Hypocretin receptor type 1 (Homo sapiens, UniProt O43613)", "Assigned Category": "Satisfied"}
{"Smiles Entry": "Cc1ccc(-n2nccn2)c(C(=O)N2CCCC[C@@H]2Cn2ccc(-c3ccc(F)cn3)n2)c1", "Assay System": "Orexin/Hypocretin receptor type 1 (Homo sapiens, UniProt O43613)", "Assigned Category": "Not satisfied"}
{"Smiles Entry": "Cc1ccc(-n2nccn2)c(C(=O)N2CCCO[C@H]2Cn2ncn(-c3ccc(F)cn3)c2=O)c1", "Assay System": "Orexin/Hypocretin receptor type 1 (Homo sapiens, UniProt O43613)", "Assigned Category": "Not satisfied"}
{"Smiles Entry": "Cc1ccc(-c2ncccn2)c(C(=O)N2CCCO[C@H]2Cn2ccc(-c3ccc(F)cn3)n2)c1", "Assay System": "Orexin/Hypocretin receptor type 1 (Homo sapiens, UniProt O43613)", "Assigned Category": "Satisfied"}

====

Assay Explanation: Plasma protein binding in Sprague-Dawley rat at 2 ug/mL
Assay type: ADME, cell-free
Condition Parameters: read-out: PPB (converted)

{"Smiles Entry": "Cc1ccc(-n2nccn2)c(C(=O)N2CCCO[C@H]2Cn2ccc(-c3ccc(F)cn3)n2)c1", "fraction unbound at 2 ug/mL": 0.12}

====

Assay Explanation: Drug uptake in cerebrospinal fluid in Sprague-Dawley rat at 3 mg/kg, po measured after 1 hr
Format: ADME, organism-based
Condition Parameters: read-out: Drug uptake
Endpoint: concentration at 1 h (nM)

{"Smiles Entry": "Cc1ccc(-n2nccn2)c(C(=O)N2CCCO[C@H]2Cn2ccc(-c3ccc(F)cn3)n2)c1", "Readout Value": 2.23}

====

Assay Explanation: Drug metabolism in human liver microsomes incubated for 15 mins
Format: ADME, Microsome
Condition Parameters: read-out: Drug metabolism
I would appreciate it if you labelled entries yes (1) when metabolised at 0.25 h is 20% or higher, otherwise no (0).

{"Smiles Entry": "O=C(c1cc(F)ccc1-n1nccn1)N1CCCO[C@H]1Cn1ccc(-c2ccc(F)cn2)n1", "Assigned Category": "yes (1)"}
{"Smiles Entry": "Cc1ccc(-n2nccn2)c(C(=O)N2CCOC[C@H]2Cn2ccc(-c3ccc(F)cn3)n2)c1", "Assigned Category": "yes (1)"}
{"Smiles Entry": "Cc1ccc(-n2nccn2)c(C(=O)N2CCCC[C@H]2Cn2ccc(-c3ccc(F)cn3)n2)c1", "Assigned Category": "yes (1)"}
{"Smiles Entry": "O=C(c1cc(F)ccc1-c1ncccn1)N1CCCO[C@H]1Cn1ccc(-c2ccc(F)cn2)n1", "Assigned Category": "yes (1)"}
{"Smiles Entry": "Cc1ccc(-n2nccn2)c(C(=O)N2COC[C@H]2Cn2ccc(-c3ccc(F)cn3)n2)c1", "Assigned Category": "no (0)"}
{"Smiles Entry": "Cc1ccc(-n2nccn2)c(C(=O)N2CCCO[C@H]2Cn2cc(-c3ccc(F)cn3)nn2)c1", "Assigned Category": "no (0)"}
{"Smiles Entry": "Cc1ccc(-n2nccn2)c(C(=O)N2CCCO[C@H]2Cn2ncn(-c3ccc(F)cn3)c2=O)c1", "Assigned Category": "no (0)"}

====

Assay System: Orexin/Hypocretin receptor type 1 (Homo sapiens)
Assay Explanation: Antagonist activity at human recombinant OX1R expressed in CHOK1 cells assessed as inhibition of orexin A-induced intracellular Ca2+ release preincubated for 30 mins followed by orexin-A stimulation by Fluo4-AM dye based fluorescence analysis
Format: functional, cell-based, CHO-K1
Below, each entry is listed alongside its reported IC50.
Endpoint: IC50 (nM)

{"Smiles Entry": "Cc1ccc(-n2nccn2)c(C(=O)N2CCC[C@H]2Cn2ccc(-c3ccc(F)cn3)n2)c1", "Assay System": "Orexin/Hypocretin receptor type 1 (Homo sapiens)", "Endpoint": "IC50", "Unit String": "nM", "Readout Value": 3.3}
{"Smiles Entry": "Cc1ccc(-n2nccn2)c(C(=O)N2CCOC[C@H]2Cn2ccc(-c3ccc(F)cn3)n2)c1", "Assay System": "Orexin/Hypocretin receptor type 1 (Homo sapiens)", "Endpoint": "IC50", "Unit String": "nM", "Readout Value": 3.5}
{"Smiles Entry": "Cc1ccc(-n2nccn2)c(C(=O)N2CCCO[C@@H]2Cn2ccc(-c3ccc(F)cn3)n2)c1", "Assay System": "Orexin/Hypocretin receptor type 1 (Homo sapiens)", "Endpoint": "IC50", "Unit String": "nM", "Readout Value": 344}
{"Smiles Entry": "Cc1ccc(-n2nccn2)c(C(=O)N2CCCO[C@H]2Cn2ncc(-c3ccc(F)cn3)n2)c1", "Assay System": "Orexin/Hypocretin receptor type 1 (Homo sapiens)", "Endpoint": "IC50", "Unit String": "nM", "Readout Value": 2.9}
{"Smiles Entry": "Cc1ccc(-n2nccn2)c(C(=O)N2CCC[C@@H]2Cn2ccc(-c3ccc(F)cn3)n2)c1", "Assay System": "Orexin/Hypocretin receptor type 1 (Homo sapiens)", "Endpoint": "IC50", "Unit String": "nM", "Readout Value": 363}

====

Assay Explanation: Drug metabolism in human liver microsomes incubated for 15 mins
Format: ADME, Microsome
Condition Parameters: read-out: Drug metabolism
Endpoint: metabolised at 0.25 h (%)

{"Smiles Entry": "Cc1ccc(-n2nccn2)c(C(=O)N2CCCO[C@H]2Cn2ncc(-c3ccc(F)cn3)n2)c1", "Unit String": "%", "Readout Value": 16.4}
{"Smiles Entry": "Cc1ccc(-n2nccn2)c(C(=O)N2CCC[C@H]2Cn2ccc(-c3ccc(F)cn3)n2)c1", "Unit String": "%", "Readout Value": 37.2}
{"Smiles Entry": "Cc1ccc(-n2nccn2)c(C(=O)N2CCS[C@H]2Cn2ccc(-c3ccc(F)cn3)n2)c1", "Unit String": "%", "Readout Value": 53}
{"Smiles Entry": "O=C(c1ccccc1-n1nccn1)N1CCCO[C@H]1Cn1ccc(-c2ccc(F)cn2)n1", "Unit String": "%", "Readout Value": 14.6}
{"Smiles Entry": "Cc1ccc(-n2nccn2)c(C(=O)N2CSC[C@H]2Cn2ccc(-c3ccc(F)cn3)n2)c1", "Unit String": "%", "Readout Value": 73.7}
{"Smiles Entry": "Cc1ccc(-n2nccn2)c(C(=O)N2CCCO[C@H]2Cn2cc(-c3ccc(F)cc3)cn2)c1", "Unit String": "%", "Readout Value": 24.8}
{"Smiles Entry": "Cc1ccc(-n2nccn2)c(C(=O)N2CCCO[C@H]2Cc2cnn(-c3ccc(F)cn3)c2)c1", "Unit String": "%", "Readout Value": 29.7}
{"Smiles Entry": "Cc1ccc(-n2nccn2)c(C(=O)N2CCO[C@H]2Cn2ccc(-c3ccc(F)cn3)n2)c1", "Unit String": "%", "Readout Value": 15.7}
{"Smiles Entry": "Cc1ccc(-n2nccn2)c(C(=O)N2CCCO[C@H]2Cn2cc(-c3ccc(F)cn3)cn2)c1", "Unit String": "%", "Readout Value": 15.8}
{"Smiles Entry": "Cc1ccc(-n2nccn2)c(C(=O)N2COCC[C@H]2Cn2ccc(-c3ccc(F)cn3)n2)c1", "Unit String": "%", "Readout Value": 24.1}
{"Smiles Entry": "Cc1ccc(-c2ncccn2)c(C(=O)N2CCCO[C@H]2Cn2ccc(-c3ccc(F)cn3)n2)c1", "Unit String": "%", "Readout Value": 26.3}
{"Smiles Entry": "Cc1ccc(-n2nccn2)c(C(=O)N2CCCO[C@H]2Cn2ccc(-c3ccc(F)cn3)n2)c1", "Unit String": "%", "Readout Value": 34.4}
